Biological target: Cytochrome P450 2D6 (Homo sapiens)
Assay: Cytochrome P450 family 2 subfamily D member 6 (CYP2D6) small molecule antagonists: luciferase biochemical (cell-free) qHTS assay (AID 1645840); note: nearly all actives have a fitted effect of over 55% in size; note: potency is the fitted concentration of half-maximal effect
Conditions: P450-Glo CYP2D6 enzyme, luciferin luminescence, 1 h; series mostly up to 57.4 µM
Records with an inconclusive call do not appear. The source made the active and inactive calls. Calls come from the whole dose curve; as a rule, active = well fitted inhibition curve with a large enough effect in the repeat runs; inconclusive = weak or mixed curves; inactive = flat fitted curve, though single readings scatter.
measurement name: Potency

Here's what some known entries look like.
>>> recorded_result("COC(=O)/C=C(/C)N")
"inactive"
>>> recorded_result("CCCCN(CCCC)C(C(N)=O)c1ccc(OC)cc1 (configuration not stated)")
"776 nM (active)"
>>> recorded_result("CCN(CC)CC(=O)Nc1c(C)cccc1C(=O)OC")
"inactive"
>>> recorded_result("CCCCCOc1ccccc1/C(=C\\SC)n1ccnc1")
"977 nM (active)"
>>> recorded_result("OC1(c2ccc(Cl)c(C(F)(F)F)c2)CCN(CCCC(c2ccc(F)cc2)c2ccc(F)cc2)CC1")
"1230 nM (active)"
>>> recorded_result("Brc1ccccc1-c1ccccc1")
"inactive"

We next turn to a different compound, shown below.
Req: Quick one: Potency of CC[N+](CC)(CC)CCOC(=O)C(C1CCCC1)C1CCCC1 ?
Resp: 3090 nM (active)
